B1: LINE1-mini (parent)
chain: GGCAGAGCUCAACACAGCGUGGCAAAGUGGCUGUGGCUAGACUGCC

# Variants of: B1
# test: self-cleavage, relative activity (ratio to wild type); higher = more cleavage; in vitro, sequencing; the parent is a self-cleaving ribozyme
I'd appreciate it if you could label each record using self-cleavage and these ranges: bin A = under 0.08, bin B = from 0.08 up to 0.7, bin C = 0.7 and over

// query Category of C13A G44U , please.
// result bin B

// query Category of G5A G27A , please.
// result bin B

Where these numbers come from: the RNAGym collection of RNA variant scans (doi:10.7554/elife.90254)
